Here, each record is paired with measured MIC data.
System: Staphylococcus aureus
Experimental Details: In vitro antibacterial activity against the gram-positive bacteria, penicillin sensitive Staphylococcus aureus (3849)
Assay type: functional
Your answer should be a plain number; it is taken to be in µg/mL.

In the examples that follow, each entry is paired with its recorded MIC.
| Compound | MIC (µg/mL) |
| --- | --- |
| CC(=O)OCC1=C(C(=O)O)N2C(=O)[C@@H](NC(=O)CN(OCc3cccc(Cl)c3)C(=O)NCc3ccccc3)C2SC1 (stereo partly drawn) | 0.5 |
| CC1(C)S[C@@H]2[C@H](NC(=O)[C@H](N)c3ccc(O)cc3)C(=O)N2[C@H]1C(=O)O.O=C(O)[C@H]1/C(=C/CO)O[C@@H]2CC(=O)N21 | 0.25 |

Now take the following compound into account.
Dear colleague, I am looking for the recorded MIC of the following compound: CO/N=C(\C(=O)N[C@@H]1C(=O)N2C(C(=O)[O-])=C(C[n+]3cccc4c3CCC4)CS[C@H]12)c1csc(N)n1 [CEFPIROME] 1

###

Quick reference for MIC among some molecules
Test system: Streptococcus pyogenes
Experimental Details: In vitro antibacterial activity against the gram-positive bacteria, erythromycin resistant Streptococcus pyogenes
Assay type: functional
Answer with a number only, understood to be in µg/mL.

| Molecule | Unit Annotation | Endpoint Value |
| --- | --- | --- |
| CC(=O)OCC1=C(C(=O)O)N2C(=O)[C@@H](NC(=O)CN(OCc3ccccc3)C(=O)Nc3ccccc3)C2SC1 (stereo not given in full) | µg/mL | 0.12 |
| CC(=O)OCC1=C(C(=O)O)N2C(=O)[C@@H](NC(=O)CN(OCc3ccccc3Cl)C(=O)NCc3ccccc3)C2SC1 (stereo not given in full) | µg/mL | 0.25 |
| CC(=O)OCC1=C(C(=O)O)N2C(=O)[C@@H](NC(=O)CN(OCc3ccc(Cl)cc3)C(=O)Nc3ccccc3)C2SC1 (stereo not given in full) | µg/mL | 0.06 |
| CO/N=C(\C(=O)N[C@@H]1C(=O)N2C(C(=O)[O-])=C(C[n+]3cccc4c3CCC4)CS[C@H]12)c1csc(N)n1 [CEFPIROME] | µg/mL | 0.03 |
| CC(=O)OCC1=C(C(=O)O)N2C(=O)[C@@H](NC(=O)CN(OCc3cccc(Cl)c3)C(=O)c3ccccc3)C2SC1 (stereo not given in full) | µg/mL | 0.25 |

Any idea what its MIC is? The molecule is CO/N=C(\C(=O)N[C@@H]1C(=O)N2C(C(=O)O)=C(CSc3nc(=O)c(O)nn3C)CS[C@H]12)c1csc(N)n1 [CEFTRIAXONE] 0.06

# lookup: MIC of N[C@@H](C(=O)N[C@@H]1C(=O)N2C(C(=O)O)=C(Cl)CS[C@H]12)c1ccccc1 [CEFACLOR ANHYDROUS] 0.5

Any idea what MIC was measured for CC(=O)OCC1=C(C(=O)O)N2C(=O)[C@@H](NC(=O)CN(OCc3ccccc3)C(=O)c3ccccc3)C2SC1 (stereo not given in full) ? 0.25

Sample CC(=O)OCC1=C(C(=O)O)N2C(=O)[C@@H](NC(=O)CN(OCc3ccc(Cl)cc3)C(=O)c3ccccc3)C2SC1 (stereo not given in full) — what was its MIC? 0.12

Looking for the measured MIC of CC(=O)OCC1=C(C(=O)O)N2C(=O)[C@@H](NC(=O)CN(OCc3ccccc3Cl)C(=O)Nc3ccccc3)C2SC1 (stereo not given in full) , can you help? 0.12
